TEST_PARAMETERS: 333.15 K; 101.33 kPa; Liquid; Capillary tube (Ostwald / Ubbelohde) method
MEASURED_ATTRIBUTE: viscosity (mPa·s)
Number in mPa·s, nothing else.

Prompt: State its viscosity: CCCC[P+](C)(CCCC)CCCC.COS(=O)(=O)[O-] [tributylmethylphosphonium methyl sulfate]
Response: 113.9

Prompt: State its viscosity: COS(=O)(=O)[O-].C[n+]1ccccc1 [1-methylpyridinium methylsulfate]
Response: 23

Prompt: State its viscosity: CCCC[P+](C)(CCCC)CCCC.O=S(=O)([N-]S(=O)(=O)C(F)(F)F)C(F)(F)F
Response: 38.4

Prompt: State its viscosity: CCCCn1cc[n+](C)c1.COS(=O)(=O)[O-] [1-butyl-3-methylimidazolium methyl sulfate]
Response: 40.5

Prompt: State its viscosity: CCCC[P+](C)(CCCC)CCCC.[Cl-] [methyltributylphosphonium chloride]
Response: 416.8

###

TEST_PARAMETERS: 283.15 K; 101.33 kPa; Liquid; transient hot wire
Please provide measured thermal conductivity for the entries that follow.
Number in W/m/K, nothing else.

Prompt: State its thermal conductivity: COS(=O)(=O)[O-].C[n+]1ccccc1 [1-methylpyridinium methylsulfate]
Response: 0.205

Prompt: State its thermal conductivity: CCCC[P+](C)(CCCC)CCCC.O=S(=O)([N-]S(=O)(=O)C(F)(F)F)C(F)(F)F
Response: 0.126

Prompt: State its thermal conductivity: OCC(O)CO
Response: 0.284

Prompt: State its thermal conductivity: CCCCn1cc[n+](C)c1.COS(=O)(=O)[O-] [1-butyl-3-methylimidazolium methyl sulfate]
Response: 0.179

###

TEST_PARAMETERS: 333.15 K; 101.33 kPa; Liquid; Direct current cell with electrodes
MEASURED_ATTRIBUTE: electrical conductivity

Prompt: State its electrical conductivity: CCCCn1cc[n+](C)c1.COS(=O)(=O)[O-] [1-butyl-3-methylimidazolium methyl sulfate]
Response: 0.623 S/m

Prompt: State its electrical conductivity: CCCC[P+](C)(CCCC)CCCC.COS(=O)(=O)[O-] [tributylmethylphosphonium methyl sulfate]
Response: 0.0882 S/m

Prompt: State its electrical conductivity: CCCC[P+](C)(CCCC)CCCC.[Cl-] [methyltributylphosphonium chloride]
Response: 0.052 S/m

Prompt: State its electrical conductivity: COS(=O)(=O)[O-].C[n+]1ccccc1 [1-methylpyridinium methylsulfate]
Response: 1.36 S/m

Prompt: State its electrical conductivity: CCCC[P+](C)(CCCC)CCCC.O=S(=O)([N-]S(=O)(=O)C(F)(F)F)C(F)(F)F
Response: 0.279 S/m

###

METHOD: refractive index (Na D-line) (dimensionless)
TEST_PARAMETERS: 283.15 K; 101.33 kPa; Liquid; Standard Abbe refractometry
Numbers after ± are expanded uncertainties.
Please provide measured refractive index for the entries that follow.

Prompt: State its refractive index: CCCC[P+](C)(CCCC)CCCC.O=S(=O)([N-]S(=O)(=O)C(F)(F)F)C(F)(F)F
Response: 1.4403 ± 0.0005

Prompt: State its refractive index: COS(=O)(=O)[O-].C[n+]1ccccc1 [1-methylpyridinium methylsulfate]
Response: 1.5164 ± 0.0005

Prompt: State its refractive index: CCCC[P+](C)(CCCC)CCCC.[Cl-] [methyltributylphosphonium chloride]
Response: 1.5053 ± 0.0005

Prompt: State its refractive index: CCCC[P+](C)(CCCC)CCCC.COS(=O)(=O)[O-] [tributylmethylphosphonium methyl sulfate]
Response: 1.4782 ± 0.0005

Prompt: State its refractive index: CCCCn1cc[n+](C)c1.COS(=O)(=O)[O-] [1-butyl-3-methylimidazolium methyl sulfate]
Response: 1.4831 ± 0.0005

###

TEST_PARAMETERS: 323.15 K; 101.33 kPa; Liquid; Capillary tube (Ostwald / Ubbelohde) method
MEASURED_ATTRIBUTE: viscosity (mPa·s)
Number in mPa·s, nothing else.

Prompt: State its viscosity: CCCC[P+](C)(CCCC)CCCC.O=S(=O)([N-]S(=O)(=O)C(F)(F)F)C(F)(F)F
Response: 54.7

Prompt: State its viscosity: CCCC[P+](C)(CCCC)CCCC.[Cl-] [methyltributylphosphonium chloride]
Response: 859

Prompt: State its viscosity: CCCC[P+](C)(CCCC)CCCC.COS(=O)(=O)[O-] [tributylmethylphosphonium methyl sulfate]
Response: 189.4

Prompt: State its viscosity: COS(=O)(=O)[O-].C[n+]1ccccc1 [1-methylpyridinium methylsulfate]
Response: 32

Prompt: State its viscosity: CCCCn1cc[n+](C)c1.COS(=O)(=O)[O-] [1-butyl-3-methylimidazolium methyl sulfate]
Response: 59.6

###

TEST_PARAMETERS: 323.15 K; 101.33 kPa; Liquid; Vibrating tube method
MEASURED_ATTRIBUTE: mass density (kg/m3)
Number in kg/m3, nothing else.

Prompt: State its mass density: CCCC[P+](C)(CCCC)CCCC.[Cl-] [methyltributylphosphonium chloride]
Response: 942.74

Prompt: State its mass density: CCCC[P+](C)(CCCC)CCCC.O=S(=O)([N-]S(=O)(=O)C(F)(F)F)C(F)(F)F
Response: 1233.84

Prompt: State its mass density: CCCCn1cc[n+](C)c1.COS(=O)(=O)[O-] [1-butyl-3-methylimidazolium methyl sulfate]
Response: 1192.26

Prompt: State its mass density: CCCC[P+](C)(CCCC)CCCC.COS(=O)(=O)[O-] [tributylmethylphosphonium methyl sulfate]
Response: 1042.02

Prompt: State its mass density: COS(=O)(=O)[O-].C[n+]1ccccc1 [1-methylpyridinium methylsulfate]
Response: 1327.8

###

Please provide measured refractive index for the entries that follow.
METHOD: refractive index (Na D-line) (dimensionless)
TEST_PARAMETERS: 333.15 K; 101.33 kPa; Liquid; Standard Abbe refractometry
Enter a number only.

Prompt: State its refractive index: COS(=O)(=O)[O-].C[n+]1ccccc1 [1-methylpyridinium methylsulfate]
Response: 1.5039

Prompt: State its refractive index: CCCC[P+](C)(CCCC)CCCC.[Cl-] [methyltributylphosphonium chloride]
Response: 1.4923

Prompt: State its refractive index: CCCCn1cc[n+](C)c1.COS(=O)(=O)[O-] [1-butyl-3-methylimidazolium methyl sulfate]
Response: 1.4704

Prompt: State its refractive index: CCCC[P+](C)(CCCC)CCCC.O=S(=O)([N-]S(=O)(=O)C(F)(F)F)C(F)(F)F
Response: 1.4255

Prompt: State its refractive index: CCCC[P+](C)(CCCC)CCCC.COS(=O)(=O)[O-] [tributylmethylphosphonium methyl sulfate]
Response: 1.4647

###

TEST_PARAMETERS: 343.15 K; 101.33 kPa; Liquid; Capillary tube (Ostwald / Ubbelohde) method
Please provide measured viscosity for the entries that follow.
Number in mPa·s, nothing else.

Prompt: State its viscosity: CCCCn1cc[n+](C)c1.COS(=O)(=O)[O-] [1-butyl-3-methylimidazolium methyl sulfate]
Response: 28.9

Prompt: State its viscosity: CCCC[P+](C)(CCCC)CCCC.O=S(=O)([N-]S(=O)(=O)C(F)(F)F)C(F)(F)F
Response: 27.5

Prompt: State its viscosity: COS(=O)(=O)[O-].C[n+]1ccccc1 [1-methylpyridinium methylsulfate]
Response: 17.3

Prompt: State its viscosity: CCCC[P+](C)(CCCC)CCCC.COS(=O)(=O)[O-] [tributylmethylphosphonium methyl sulfate]
Response: 72.4

###

Please provide measured refractive index for the entries that follow.
METHOD: refractive index (Na D-line) (dimensionless)
TEST_PARAMETERS: 323.15 K; 101.33 kPa; Liquid; Standard Abbe refractometry
Enter a number only.

Prompt: State its refractive index: CCCC[P+](C)(CCCC)CCCC.O=S(=O)([N-]S(=O)(=O)C(F)(F)F)C(F)(F)F
Response: 1.4285

Prompt: State its refractive index: COS(=O)(=O)[O-].C[n+]1ccccc1 [1-methylpyridinium methylsulfate]
Response: 1.5063

Prompt: State its refractive index: CCCCn1cc[n+](C)c1.COS(=O)(=O)[O-] [1-butyl-3-methylimidazolium methyl sulfate]
Response: 1.4729

Prompt: State its refractive index: CCCC[P+](C)(CCCC)CCCC.[Cl-] [methyltributylphosphonium chloride]
Response: 1.4952

Prompt: State its refractive index: CCCC[P+](C)(CCCC)CCCC.COS(=O)(=O)[O-] [tributylmethylphosphonium methyl sulfate]
Response: 1.4673

###

TEST_PARAMETERS: 343.15 K; 101.33 kPa; Liquid; Direct current cell with electrodes
// assign Met if electrical conductivity falls strictly below 0.1 S/m, else Not met (ties count as Not met)

Prompt: Consider CCCCn1cc[n+](C)c1.COS(=O)(=O)[O-] [1-butyl-3-methylimidazolium methyl sulfate] . Does its electrical conductivity lie strictly below 0.1 S/m?
Response: Not met

Prompt: Consider CCCC[P+](C)(CCCC)CCCC.[Cl-] [methyltributylphosphonium chloride] . Does its electrical conductivity lie strictly below 0.1 S/m?
Response: Met

Prompt: Consider COS(=O)(=O)[O-].C[n+]1ccccc1 [1-methylpyridinium methylsulfate] . Does its electrical conductivity lie strictly below 0.1 S/m?
Response: Not met

Prompt: Consider CCCC[P+](C)(CCCC)CCCC.COS(=O)(=O)[O-] [tributylmethylphosphonium methyl sulfate] . Does its electrical conductivity lie strictly below 0.1 S/m?
Response: Not met

Prompt: Consider CCCC[P+](C)(CCCC)CCCC.O=S(=O)([N-]S(=O)(=O)C(F)(F)F)C(F)(F)F . Does its electrical conductivity lie strictly below 0.1 S/m?
Response: Not met
